# Assayed system: Human complement C1s enzyme (Homo sapiens, UniProt P09871)
# Construct: purified from human serum, Complement Technology, Inc; purchased Complement Technology, Inc; host or cells: human serum
# Sequence (P09871 438-688 limits assumed): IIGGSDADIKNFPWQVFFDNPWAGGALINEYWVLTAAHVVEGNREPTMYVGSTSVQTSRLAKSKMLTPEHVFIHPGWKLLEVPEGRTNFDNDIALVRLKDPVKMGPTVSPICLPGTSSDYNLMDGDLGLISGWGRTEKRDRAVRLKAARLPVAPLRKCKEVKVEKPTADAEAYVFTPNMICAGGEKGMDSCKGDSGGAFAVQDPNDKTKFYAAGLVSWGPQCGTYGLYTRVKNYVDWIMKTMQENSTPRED
# Sequence (P09871 16-437 partner limits assumed): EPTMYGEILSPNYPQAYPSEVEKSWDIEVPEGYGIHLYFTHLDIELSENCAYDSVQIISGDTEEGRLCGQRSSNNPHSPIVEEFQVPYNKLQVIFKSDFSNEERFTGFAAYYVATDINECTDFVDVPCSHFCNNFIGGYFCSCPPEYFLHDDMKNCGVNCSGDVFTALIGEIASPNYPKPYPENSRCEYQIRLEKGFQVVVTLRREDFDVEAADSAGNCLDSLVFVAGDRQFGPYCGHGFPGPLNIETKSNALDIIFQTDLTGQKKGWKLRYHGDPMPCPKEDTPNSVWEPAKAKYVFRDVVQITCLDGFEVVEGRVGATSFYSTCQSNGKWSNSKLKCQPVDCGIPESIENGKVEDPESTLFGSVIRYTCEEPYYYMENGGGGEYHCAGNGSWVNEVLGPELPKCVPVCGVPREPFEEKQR
# Experiment description: Human C1s Enzyme Assay
# Type: biochemical
# Condition info: human C1s 1.16 nM, 5 min preincubation, substrate Z-L-Lys-SBzl 100 μM, A405; read-out: C1s Protease Activity
Measurement label: IC50

INSERT INTO results (compound, assayed_system, reported_measurement) VALUES
  ('COC[C@@]1(F)C[C@@H](C(=O)NCc2cc(C(=N)N)cs2)N(C(=O)CNC(=O)CCCOc2ccccc2)C1', 'Human complement C1s enzyme (Homo sapiens, UniProt P09871)', '< 100 nM'),
  ('CC(=O)NCc1cc(C(=O)NCC(=O)N2[C@H]3C[C@@]3(C)C[C@H]2C(=O)NCc2cc(C(=N)N)cs2)ccc1Oc1ccccc1', 'Human complement C1s enzyme (Homo sapiens, UniProt P09871)', '< 100 nM'),
  ('C[C@@]12C[C@@H]1N(C(=O)CN1Cc3cc(Oc4ccccc4)ccc3C1=O)[C@H](C(=O)NCc1cc(C(=N)N)cs1)C2', 'Human complement C1s enzyme (Homo sapiens, UniProt P09871)', '< 100 nM'),
  ('C[C@@]12C[C@@H]1N(C(=O)CNC(=O)CCCOc1ccc(S(C)(=N)=O)cc1)[C@H](C(=O)NCc1cc(C(=N)N)cs1)C2 (stereo partly shown)', 'Human complement C1s enzyme (Homo sapiens, UniProt P09871)', '100 to 1000 nM'),
  ('C[C@@]12C[C@@H]1N(C(=O)CNC(=O)c1ccc(Oc3ccc(P(C)(=O)O)cc3)cc1)[C@H](C(=O)NCc1cc(C(=N)N)cs1)C2', 'Human complement C1s enzyme (Homo sapiens, UniProt P09871)', '100 to 1000 nM'),
  ('N=C(N)c1csc(CNC(=O)C2CC3(CCC3)CN2C(=O)CNC(=O)CCCOc2ccccc2)c1 (stereo not shown)', 'Human complement C1s enzyme (Homo sapiens, UniProt P09871)', '< 100 nM'),
  ('CC(C)C[C@@H](NC(=O)[C@@H]1CC2(CN1C(=O)CNC(=O)CCCOc1ccccc1)OCCO2)c1cc(C(=N)N)cs1', 'Human complement C1s enzyme (Homo sapiens, UniProt P09871)', '> 1000 nM'),
  ('C[C@@]12C[C@@H]1N(C(=O)CNC(=O)c1ccc(Oc3ccccc3)cc1)[C@H](C(=O)Nc1ccc3c(C(=N)N)csc3c1)C2', 'Human complement C1s enzyme (Homo sapiens, UniProt P09871)', '100 to 1000 nM'),
  ('N=C(N)c1csc(CNC(=O)[C@@H]2CC3(CCCC3)CN2C(=O)CNC(=O)CCCOc2ccccc2)c1', 'Human complement C1s enzyme (Homo sapiens, UniProt P09871)', '100 to 1000 nM'),
  ('Cc1ccc(O[C@@H]2C[C@@H](C(=O)N[C@H](C)c3cc(C(=N)N)cs3)N(C(=O)CNC(=O)CCCOc3ccccc3)C2)cc1', 'Human complement C1s enzyme (Homo sapiens, UniProt P09871)', '< 100 nM'),
  ('C[C@@H](NC(=O)[C@@H]1C[C@](F)(CF)CN1C(=O)CNC(=O)CCCOc1ccc(F)cc1)c1cc(C(=N)N)cs1', 'Human complement C1s enzyme (Homo sapiens, UniProt P09871)', '< 100 nM'),
  ('N=C(N)c1csc(CNC(=O)[C@@H]2C[C@]3(CO)C[C@@H]3N2C(=O)CNC(=O)c2ccc(Oc3ccccc3)cc2)c1', 'Human complement C1s enzyme (Homo sapiens, UniProt P09871)', '< 100 nM'),
  ('COCCOCCCC(=O)NCC(=O)N1[C@H]2C[C@@]2(C)C[C@H]1C(=O)NCc1cc(C(=N)N)cs1', 'Human complement C1s enzyme (Homo sapiens, UniProt P09871)', '100 to 1000 nM');

Recorded values, source patent US20250171423A1.
